Consider the following compounds; for each one, report its Population Fragmented Nuclei (%).
# System: Fibroblast
# Assay info: Multiplex assay against human fibroblast
# Format: toxicity, cell-based
# Protocol conditions: 12 h, 10 µM, compound concentration 10 uM, replicate 1
Number in %, nothing else.

Q: Identify measured Population Fragmented Nuclei (%) associated with CC(/C=C1\SC(=S)N(CCCC(=O)Nc2ccc(C(=O)O)c(O)c2)C1=O)=C\c1ccccc1
A: 32

Q: Please list Population Fragmented Nuclei (%) recorded for the compound Cl.Cn1c2c(c3ccc(Cl)c(Cl)c31)C(C#N)C1(CCNCC1)NC2=O (centres undefined)
A: 44

Q: Tell me measured Population Fragmented Nuclei (%) for CN1C(=O)[C@@H](NC(=O)c2cc3ccccc3[nH]2)N=C(c2ccccc2)c2ccccc21 [DEVAZEPIDE] please.
A: 18

Q: Please list Population Fragmented Nuclei (%) recorded for the compound C=CC(=O)Nc1cc(-n2c(=O)ccc3cnc4ccc(-c5ccc(NS(C)(=O)=O)cc5)cc4c32)ccc1C
A: 30

These entries and their values trace back to ChEMBL document CHEMBL4689842.
